Assay: Vero cell viability (MTS assay)
Format: cell-based
Details: African green monkey, Vero cells, HSV-2 assay conditions; read-out: Citotoxicity (Vero cells) CC50
Entries whose CC50 is below 100 µM take Satisfied; entries at or above 100 µM take Not satisfied.

See these solved cases before continuing.
{"columns": ["itemSmiles", "cat"],
 "data": [
  ["O=C(O)c1ccc(-c2ccc(/C=C3\\SC(=S)N(Cc4ccc(F)cc4)C3=O)o2)cc1O", "Not satisfied"],
  ["O=C(O)c1ccc(-c2ccc(/C=C3\\SC(=S)N(c4ccc(F)c(Cl)c4)C3=O)o2)cc1O", "Not satisfied"],
  ["CCc1ccc(CCN2C(=O)/C(=C/c3ccc(-c4ccc(C(=O)O)c(O)c4)o3)SC2=S)cc1", "Satisfied"],
  ["O=C(O)c1ccc(-c2ccc(/C=C3\\SC(=S)N(Cc4ccc(Cl)cc4)C3=O)o2)cc1O", "Not satisfied"],
  ["O=C(O)c1ccc(-c2ccc(/C=C3\\SC(=S)N(Cc4ccc(Cl)c(F)c4)C3=O)o2)cc1O", "Satisfied"]
]}

Find out if reported CC50 for O=C(O)c1ccc(-c2ccc(/C=C3\SC(=S)N(CCCc4ccccc4)C3=O)o2)cc1O is less than 100 µM
Not satisfied

Does this compound meet the criterion CC50 < 100 µM? O=C(O)c1ccc(-c2ccc(/C=C3\SC(=S)N(CCc4ccc(F)cc4)C3=O)o2)cc1O
Not satisfied

----------
Assay: Vero cell viability (MTS assay)
Format: cell-based
Conditions: African green monkey, Citotoxicity (Vero cells) CC50
measuredEndpoint: CC50 (µM)
Give the value, in units of µM, as a plain number.

Kindly indicate its recorded CC50. Item: Nc1nc2c(ncn2COCCO)c(=O)[nH]1 [ACV, Acyclovir, reference compound]
732

----------
Test system: HSV-2
Assay: HSV-2 plaque reduction assay on Vero cells
Assay type: cell-based
Conditions: Vero cells
Catalogue of SI (CC50/EC50), HSV-2 values
Give the value as a plain number.

Examples from the recorded data:
{"columns": ["compound", "SI (CC50/EC50), HSV-2"],
 "data": [
  ["O=C(O)c1ccc(-c2ccc(/C=C3\\SC(=S)N(CCCc4ccccc4)C3=O)o2)cc1O", 3936],
  ["Cc1ccc(CCN2C(=O)/C(=C/c3ccc(-c4ccc(C(=O)O)c(O)c4)o3)SC2=S)cc1", 2209],
  ["Nc1nc2c(ncn2COCCO)c(=O)[nH]1 [ACV, Acyclovir, reference compound]", 1177]
]}

Here is the next item to consider.
Check the records and state SI (CC50/EC50), HSV-2 for O=C(O)c1ccc(-c2ccc(/C=C3\SC(=S)N(Cc4ccc(Cl)c(F)c4)C3=O)o2)cc1O
298

----------
Test: Cytotoxicity on human CD4+ T lymphocytes
Format: cell-based
measuredEndpoint: CC50 (nM)
Record the value in nM, omitting the unit from your answer.

Dear colleague, please send me the reported CC50 for O=C(O)c1ccc(-c2ccc(/C=C3\SC(=S)N(Cc4ccc(Cl)cc4)C3=O)o2)cc1O when you can.
810

----------
measuredEndpoint: melting point

Take a look at these entries with their results.
{"columns": ["molecule", "melting point"],
 "data": [
  ["Cc1ccc(CCN2C(=O)/C(=C/c3ccc(-c4ccc(C(=O)O)c(O)c4)o3)SC2=S)cc1 [Compound 9b]", "258 °C (dec.)"],
  ["O=C(O)c1ccc(-c2ccc(/C=C3\\SC(=S)N(CCc4ccc(F)cc4)C3=O)o2)cc1O [Compound 9a]", "292 °C (dec.)"],
  ["O=C(O)c1ccc(-c2ccc(/C=C3\\SC(=S)N(CCCc4ccccc4)C3=O)o2)cc1O [Compound 9c]", "248 °C (dec.)"]
]}

Please turn your attention to the following entry.
Return melting point (reported value) for this molecule: CCc1ccc(CCN2C(=O)/C(=C/c3ccc(-c4ccc(C(=O)O)c(O)c4)o3)SC2=S)cc1 [Compound 9d]
273 °C (dec.)
